Test: Drug metabolism in mouse liver microsomes assessed as rate of esterase-mediated compound hydrolysis measured per mg of protein by pH stat based titrimetric analysis
Type: ADME
Lab note: class by Vmax, see lower range: < 7 nmol/min; middle range: ≥ 7 nmol/min and < 100 nmol/min; upper range: ≥ 100 nmol/min

{"molecule": "CC(=O)OC1N=C(c2ccccc2)c2cc(Cl)ccc2NC1=O (centres undefined)", "categoryLabel": "upper range"}
{"molecule": "COC(=O)CCC(=O)OC1N=C(c2ccccc2)c2cc(Cl)ccc2NC1=O (centres undefined)", "categoryLabel": "upper range"}
{"molecule": "O=C(CCc1ccccc1)OC1N=C(c2ccccc2)c2cc(Cl)ccc2NC1=O (centres undefined)", "categoryLabel": "middle range"}
{"molecule": "CCC(CC)C(=O)OC1N=C(c2ccccc2)c2cc(Cl)ccc2NC1=O (centres undefined)", "categoryLabel": "lower range"}
{"molecule": "O=C(Cc1ccccc1)OC1N=C(c2ccccc2)c2cc(Cl)ccc2NC1=O (centres undefined)", "categoryLabel": "middle range"}

Quick check: band for CC(Cc1ccccc1)C(=O)OC1N=C(c2ccccc2)c2cc(Cl)ccc2NC1=O (racemic)
lower range

Which of the defined bands does the recorded Vmax of CCC(=O)OC1N=C(c2ccccc2)c2cc(Cl)ccc2NC1=O (centres undefined) sit within?
upper range

Please report the category associated with CCCC(=O)OC1N=C(c2ccccc2)c2cc(Cl)ccc2NC1=O (centres undefined) , nothing else.
middle range

Categorize the following entry: CC(Cc1ccccc1)C(=O)OC1N=C(c2ccccc2)c2cc(Cl)ccc2NC1=O (stereo in doubt; 11)
middle range

====

Test system: Mus musculus
Experiment: Muscle relaxant activity in iv dosed mouse after 30 mins by rotarod test
Assay type: ADME, organism-based
Conditions: in vivo, 0.5 h
quantity: ED50 (mg/kg)
I only need the number, in mg/kg, no unit after it.

{"compound": "O=C(CCc1ccccc1)OC1N=C(c2ccccc2)c2cc(Cl)ccc2NC1=O (stereo not drawn)", "studyTarget": "Mus musculus", "unitInfo": "mg/kg", "ED50": 2.57}
{"compound": "CC(Cc1ccccc1)C(=O)OC1N=C(c2ccccc2)c2cc(Cl)ccc2NC1=O (racemic)", "studyTarget": "Mus musculus", "unitInfo": "mg/kg", "ED50": 3.75}

Proceeding to the next compound to report its ED50.
The compound CCC(CC)C(=O)OC1N=C(c2ccccc2)c2cc(Cl)ccc2NC1=O (stereo not drawn) showed ED50 equal to 2.8

====

Test system: Brain
Assay: Drug uptake albino mouse brain at 5 mg equivalent of oxazepam/kg, iv after 60 mins measured per gm of tissue by thin-layer chromatography
Format: ADME, organism-based
Details: in vivo, 1 h
Entries and their Drug uptake
The reply should be a number in nmol, with the unit left off.

Some compounds with known Drug uptake results, for comparison:
{"compound": "COC(=O)CCC(=O)OC1N=C(c2ccccc2)c2cc(Cl)ccc2N[14C]1=O (stereo not drawn)", "quantity": "Drug uptake", "recordedMeasurement": 9.8}
{"compound": "O=C(CCCc1ccccc1)OC1N=C(c2ccccc2)c2cc(Cl)ccc2N[14C]1=O (stereo not drawn)", "quantity": "Drug uptake", "recordedMeasurement": 9.6}

Switching to the query record.
What the record says about CC(C)C(=O)OC1N=C(c2ccccc2)c2cc(Cl)ccc2N[14C]1=O (stereo not drawn) : Drug uptake is 10.8
